target: BIR3 domain of XIAP (Homo sapiens, UniProt P98170); construct: BIR3 domain, corresponding to amino acids 241-356 of XIAP; assay: TR-FRET assay for BIR3 (inhibition of binding of XIAP BIR3 domain to SMAC-derived Peptide A); conditions: 6x Histidine-tagged BIR3 domain (amino acids 241-356 of XIAP) 10 nM, Peptide A 20 nM
Sequence (P98170 with tags, fused parts or gaps): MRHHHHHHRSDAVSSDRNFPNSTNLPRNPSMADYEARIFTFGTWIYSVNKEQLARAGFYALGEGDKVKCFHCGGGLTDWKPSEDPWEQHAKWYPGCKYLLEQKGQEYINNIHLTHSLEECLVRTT
IC50 values, listed per item
Only the number, expressed in µM, is required.

Sample answers from the record:
CN[C@@H](C)C(=O)N[C@H](C(=O)N1c2ncccc2C[C@H]1C(=O)NCc1ccc(F)cc1)C(C)C :: 9.21
CN[C@@H](C)C(=O)N[C@H](C(=O)N1c2ncccc2C[C@H]1C(=O)Nc1ccccc1-c1ccccc1)C(C)C :: 37.6

// next entry
*Q* Endpoint output: IC50 of CN[C@@H](C)C(=O)N[C@H](C(=O)N1c2ncccc2C[C@H]1C(=O)Nc1ccccc1OC)C(C)C . Value?
*A* 25.9
